EXPERIMENTAL_TARGET: T1, HpDnaB replicative helicase;HpDnaG helicase-binding domain (HpDnaGHBD) (Helicobacter pylori;Helicobacter pylori …, UniProt O25916;P56064 1-488;415-559, |)
T1 sequence 1: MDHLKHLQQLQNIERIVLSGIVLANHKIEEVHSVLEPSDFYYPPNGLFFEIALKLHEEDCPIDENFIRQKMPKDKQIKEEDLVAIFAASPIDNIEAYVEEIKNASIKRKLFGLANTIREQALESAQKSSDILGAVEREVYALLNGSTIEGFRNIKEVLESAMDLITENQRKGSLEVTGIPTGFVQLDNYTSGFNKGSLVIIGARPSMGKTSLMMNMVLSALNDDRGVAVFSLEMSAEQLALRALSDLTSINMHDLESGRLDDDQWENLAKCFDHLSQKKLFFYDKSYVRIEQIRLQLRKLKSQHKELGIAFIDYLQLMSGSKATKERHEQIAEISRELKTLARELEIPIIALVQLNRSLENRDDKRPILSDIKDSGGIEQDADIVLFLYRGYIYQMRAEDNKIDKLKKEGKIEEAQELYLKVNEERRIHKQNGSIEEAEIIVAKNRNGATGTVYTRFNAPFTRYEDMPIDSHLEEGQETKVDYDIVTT
T1 sequence 2: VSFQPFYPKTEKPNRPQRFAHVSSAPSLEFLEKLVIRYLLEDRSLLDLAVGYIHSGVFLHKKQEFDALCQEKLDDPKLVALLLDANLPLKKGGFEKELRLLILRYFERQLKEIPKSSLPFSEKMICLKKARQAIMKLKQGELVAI
RUN_DESCRIPTION: fluorescence anisotropy
PROPERTY_NAME: Kd (nM)
Numbers only, in nM.

Kd for TTTTTTTTTTTTTTTTTTTT (ssDNA) [20dT] is 1
